Test system: Pseudomonas aeruginosa
protocol-notes: Activity of Pseudomonas aeruginosa PBP3 assessed as acylation rate constant

mol	K (×10⁵ /M/s)
CC[C@@H]1[C@H](NC(=O)/C(=N\OC(C)(C)C(=O)O)c2csc(N)n2)C(=O)N1C(=O)NS(=O)(=O)n1nc(-c2cc(=O)c(O)c[nH]2)n(CCCS(C)(=O)=O)c1=O	8.8
C=C[C@@H]1[C@H](NC(=O)/C(=N\OC(C)(C)C(=O)O)c2csc(N)n2)C(=O)N1C(=O)NS(=O)(=O)n1nc(-c2cc(=O)c(O)c[nH]2)n(CCCS(C)(=O)=O)c1=O	1.9
C[C@H]1[C@H](NC(=O)/C(=N\OC(C)(C)C(=O)O)c2nsc(N)n2)C(=O)N1C(=O)NS(=O)(=O)n1nc(-c2cc(=O)c(O)c[nH]2)n(CCCS(C)(=O)=O)c1=O	5
Cn1c(-c2cc(=O)c(O)c[nH]2)nn(S(=O)(=O)NC(=O)N2C[C@H](NC(=O)/C(=N\OC(C)(C)C(=O)O)c3csc(N)n3)C2=O)c1=O	1.7
CC(C)(O/N=C(\C(=O)N[C@H]1CN(C(=O)NS(=O)(=O)n2nc(-c3cc(=O)c(O)c[nH]3)n(C[C@@H](O)CO)c2=O)C1=O)c1csc(N)n1)C(=O)O	8.1
C[C@H]1[C@H](NC(=O)/C(=N\OC(C)(C)C(=O)O)c2csc(N)n2)C(=O)N1C(=O)NS(=O)(=O)n1nc(-c2cc(=O)c(O)cn2O)n(CCS(C)(=O)=O)c1=O	2.5
C[C@H]1[C@H](NC(=O)/C(=N\OC(C)(C)C(=O)O)c2csc(N)n2)C(=O)N1C(=O)NS(=O)(=O)n1nc(-c2cc(=O)c(O)c[nH]2)n(CC2(CS(C)(=O)=O)CC2)c1=O	2.5

---

Tested on: Pseudomonas aeruginosa
protocol-notes: Activity of Pseudomonas aeruginosa PBP3 assessed as acylation rate constant

mol	K
C[C@H]1[C@H](NC(=O)/C(=N\OC(C)(C)C(=O)O)c2csc(N)n2)C(=O)N1C(=O)NS(=O)(=O)n1nc(-c2cc(=O)c(O)c[nH]2)n(CCS(C)(=O)=O)c1=O	3.2 ×10⁵ /M/s
C[C@H]1[C@H](NC(=O)/C(=N\OC(C)(C)C(=O)O)c2csc(N)n2)C(=O)N1C(=O)NS(=O)(=O)n1nc(-c2cc(=O)c(O)c[nH]2)n(C[C@@H](O)CS(C)(=O)=O)c1=O	5.4 ×10⁵ /M/s
C[C@H]1[C@H](NC(=O)/C(=N\OC(C)(C)C(=O)O)c2csc(N)n2)C(=O)N1C(=O)NS(=O)(=O)n1nc(-c2cc(=O)c(O)c[nH]2)n(CCCCS(C)(=O)=O)c1=O	6.2 ×10⁵ /M/s

---

Measured half-life by item
protocol-notes: Half life of the compound at pH 7.4 at 37 degC
Assay type: ADME

mol	modifier	half-life [h]
C[C@H]1[C@H](NC(=O)/C(=N\OC(C)(C)C(=O)O)c2csc(N)n2)C(=O)N1C(=O)NS(=O)(=O)n1nc(-c2cc(=O)c(O)c[nH]2)n(CCCCS(C)(=O)=O)c1=O	=	100
C[C@H]1[C@H](NC(=O)/C(=N\OC(C)(C)C(=O)O)c2csc(N)n2)C(=O)N1C(=O)NS(=O)(=O)n1nc(-c2cc(=O)c(O)cn2O)n(CCS(C)(=O)=O)c1=O	=	102
C[C@H]1[C@H](NC(=O)/C(=N\OC(C)(C)C(=O)O)c2csc(N)n2)C(=O)N1C(=O)NS(=O)(=O)n1nc(-c2cc(=O)c(O)c[nH]2)n(CCCS(=O)(=O)c2ccccc2)c1=O	>	150
C=C[C@@H]1[C@H](NC(=O)/C(=N\OC(C)(C)C(=O)O)c2csc(N)n2)C(=O)N1C(=O)NS(=O)(=O)n1nc(-c2cc(=O)c(O)c[nH]2)n(CCCS(C)(=O)=O)c1=O	=	38
C[C@H]1[C@H](NC(=O)/C(=N\OC(C)(C)C(=O)O)c2csc(N)n2)C(=O)N1C(=O)NS(=O)(=O)n1nc(-c2cc(=O)c(O)c[nH]2)n(CCS(N)(=O)=O)c1=O	=	102
CCC[C@@H]1[C@H](NC(=O)/C(=N\OC(C)(C)C(=O)O)c2csc(N)n2)C(=O)N1C(=O)NS(=O)(=O)n1nc(-c2cc(=O)c(O)c[nH]2)n(CCCS(C)(=O)=O)c1=O	>	150
C[C@@H](O)[C@H]1C(=O)N2C(C(=O)O)=C(S[C@@H]3CN[C@H](C(=O)N(C)C)C3)[C@H](C)[C@H]12	=	95

---

protocol-notes: Half life in Han Wistar rat at 1 mg/kg, iv
Assay type: ADME, organism-based
test-parameters: in vivo
reported-endpoint: half-life

>>> df
                                        mol  endpoint_value
0  CC[C@H]1[C@H](NC(=O)/C(=N\OC(C)(C)C(=O)O)c2csc(N)n2)C(=O)N1C(=O)NS(=O)(=O)n1nc(-c2cc(=O)c(O)c[nH]2)n(CCCS(C)(=O)=O)c1=O         120 min
1  C[C@H]1[C@H](NC(=O)/C(=N\OC(C)(C)C(=O)O)c2nsc(N)n2)C(=O)N1C(=O)NS(=O)(=O)n1nc(-c2cc(=O)c(O)c[nH]2)n(CCCS(C)(=O)=O)c1=O         120 min
2  C[C@H]1[C@H](NC(=O)/C(=N\OC(C)(C)C(=O)O)c2csc(N)n2)C(=O)N1C(=O)NS(=O)(=O)n1nc(-c2cc(=O)c(O)c[nH]2)n(CCS(C)(=O)=O)c1=O         150 min
3  C[C@H]1[C@H](NC(=O)/C(=N\OC(C)(C)C(=O)O)c2csc(N)n2)C(=O)N1C(=O)NS(=O)(=O)n1nc(-c2cc(=O)c(O)c[nH]2)n(CCCS(C)(=O)=O)c1=O         180 min
4  C=C[C@H]1[C@H](NC(=O)/C(=N\OC(C)(C)C(=O)O)c2csc(N)n2)C(=O)N1C(=O)NS(=O)(=O)n1nc(-c2cc(=O)c(O)c[nH]2)n(CCCS(C)(=O)=O)c1=O         120 min

---

protocol-notes: Half life of the compound at pH 7.4 at 37 degC
Type: ADME
Measured half-life by item
reported-endpoint: half-life (h)

>>> print(df.to_string())
                                        mol  endpoint_value
0  CC[C@H]1[C@H](NC(=O)/C(=N\OC(C)(C)C(=O)O)c2csc(N)n2)C(=O)N1C(=O)NS(=O)(=O)n1nc(-c2cc(=O)c(O)c[nH]2)n(CCCS(C)(=O)=O)c1=O              98
1  C[C@H]1[C@H](NC(=O)/C(=N\OC(C)(C)C(=O)O)c2csc(N)n2)C(=O)N1C(=O)NS(=O)(=O)n1nc(-c2cc(=O)c(O)c[nH]2)n(CCS(C)(=O)=O)c1=O              86
2  C[C@H]1[C@H](NC(=O)/C(=N\OC(C)(C)C(=O)O)c2nsc(N)n2)C(=O)N1C(=O)NS(=O)(=O)n1nc(-c2cc(=O)c(O)c[nH]2)n(CCCS(C)(=O)=O)c1=O              85

---

Measured K by item
Tested on: Pseudomonas aeruginosa
protocol-notes: Activity of Pseudomonas aeruginosa PBP3 assessed as acylation rate constant
reported-endpoint: K (×10⁵ /M/s)

mol	modifier	endpoint-value
C[C@H]1[C@H](NC(=O)/C(=N\OC(C)(C)C(=O)O)c2csc(N)n2)C(=O)N1C(=O)NS(=O)(=O)n1nc(-c2cc(=O)c(O)cn2O)n(CCCS(C)(=O)=O)c1=O	=	1.5
C[C@H]1[C@H](NC(=O)/C(=N\OC(C)(C)C(=O)O)c2csc(N)n2)C(=O)N1C(=O)NS(=O)(=O)n1nc(-c2cc(=O)c(O)c[nH]2)n(CCCS(C)(=O)=O)c1=O	=	1.7
C[C@H]1[C@H](NC(=O)/C(=N\OC(C)(C)C(=O)O)c2csc(N)n2)C(=O)N1C(=O)NS(=O)(=O)n1nc(-c2cc(=O)c(O)c[nH]2)n(CCCS(=O)(=O)c2ccccc2)c1=O	>	4
C[C@H]1[C@H](NC(=O)/C(=N\OC(C)(C)C(=O)O)c2nc(N)sc2Cl)C(=O)N1C(=O)NS(=O)(=O)n1nc(-c2cc(=O)c(O)c[nH]2)n(CCCS(C)(=O)=O)c1=O	=	3.2

---

protocol-notes: Half life of the compound at pH 7.4 at 37 degC
Type: ADME

mol	modifier	half-life [h]
C[C@H]1[C@H](NC(=O)/C(=N\OC(C)(C)C(=O)O)c2csc(N)n2)C(=O)N1C(=O)NS(=O)(=O)n1nc(-c2cc(=O)c(O)c[nH]2)n(CC2(CS(C)(=O)=O)CC2)c1=O	=	71
C[C@@H]1[C@H](NC(=O)/C(=N\OC(C)(C)C(=O)O)c2csc(N)n2)C(=O)N1C(=O)NS(=O)(=O)n1nc(-c2cc(=O)c(O)c[nH]2)n(CCCS(C)(=O)=O)c1=O	=	76
C[C@H]1[C@H](NC(=O)/C(=N\OC(C)(C)C(=O)O)c2csc(N)n2)C(=O)N1C(=O)NS(=O)(=O)n1nc(-c2cc(=O)c(O)cn2O)n(CCCS(C)(=O)=O)c1=O	=	82
CC(C)(O/N=C(\C(=O)N[C@@H]1C(=O)N(C(=O)NS(=O)(=O)n2nc(-c3cc(=O)c(O)c[nH]3)n(CCCS(C)(=O)=O)c2=O)C1(C)C)c1csc(N)n1)C(=O)O	>	150
C[C@H]1[C@H](NC(=O)/C(=N\OC(C)(C)C(=O)O)c2csc(N)n2)C(=O)N1C(=O)NS(=O)(=O)n1nc(-c2cc(=O)c(O)c[nH]2)n(C[C@@H](O)CO)c1=O	=	117
